tested on: PPARg:RXRa (NR concentration 180 nM, RXRa partner concentration 90 nM); test: PBM binding z-score (relative to random genomic background probes); higher = stronger binding; sequences stand for … in GC…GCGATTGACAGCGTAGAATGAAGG
Tag: met if measured PBM binding z-score is not below 2, not met if it is.

Look over these answered cases.
Query block: For this sequence, is measured PBM binding z-score 2 or higher? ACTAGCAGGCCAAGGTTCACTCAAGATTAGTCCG
Result block: met

Query block: Try the sequence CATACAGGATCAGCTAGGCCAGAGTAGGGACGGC
Result block: not met

Query block: Try the sequence TGAATGAGGTTAGAAGATCAGGGAACGTTGCAAA
Result block: not met

Continuing:
Query block: For this sequence, is measured PBM binding z-score 2 or higher? AGTCAAAGTTCAGCTAGGTAACGTAAGATATGCT
Result block: met

Query block: Try the sequence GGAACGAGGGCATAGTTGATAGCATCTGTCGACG
Result block: met

Query block: Try the sequence CGAACTAGGTCATTGACAGTACAGTGAATAGTAA
Result block: met

Query block: Try the sequence ATATGTAGGTTACATCCTGGTCATTCAGGCTATG
Result block: met

Query block: Try the sequence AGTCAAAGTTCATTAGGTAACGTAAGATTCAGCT
Result block: met

Query block: Try the sequence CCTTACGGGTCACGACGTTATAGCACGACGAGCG
Result block: met

Query block: Try the sequence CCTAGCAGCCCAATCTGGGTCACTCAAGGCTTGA
Result block: not met

Query block: Try the sequence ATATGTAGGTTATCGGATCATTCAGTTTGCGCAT
Result block: met

Query block: Try the sequence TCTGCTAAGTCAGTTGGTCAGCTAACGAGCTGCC
Result block: not met

---

test system: PPARg:RXRa DBDmut IVT, anti-RXR (DBD mutation: RXRa K156A/R161A, NR concentration 270 nM, RXRa partner concentration 90 nM); test: PBM binding z-score (relative to random genomic background probes); higher = stronger binding; sequences stand for … in GC…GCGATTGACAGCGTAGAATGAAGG
Recorded PBM binding z-score split into classes low range = under 0.3, mid range = from 0.3 up to 5, high range = 5 and over

Look over these answered cases.
Query block: Quick check: band for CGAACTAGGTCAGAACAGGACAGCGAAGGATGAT
Result block: high range

Query block: Try the sequence AGTCAAAGTTCAGGACGAGGTGACGTAAAGCACG
Result block: low range

Query block: Try the sequence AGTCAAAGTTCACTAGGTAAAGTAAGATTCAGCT
Result block: mid range

Query block: Try the sequence AGTCAAAGTTCAGGGCGAGGTAACGTAAAGCACG
Result block: low range

Continuing:
Query block: Quick check: band for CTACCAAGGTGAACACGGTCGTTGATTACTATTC
Result block: mid range

Query block: Try the sequence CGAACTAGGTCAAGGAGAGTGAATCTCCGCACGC
Result block: high range

Query block: Try the sequence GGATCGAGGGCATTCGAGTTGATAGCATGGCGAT
Result block: mid range

Query block: Try the sequence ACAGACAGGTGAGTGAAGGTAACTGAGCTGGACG
Result block: low range

Query block: Try the sequence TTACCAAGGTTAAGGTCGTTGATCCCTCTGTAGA
Result block: mid range

Query block: Try the sequence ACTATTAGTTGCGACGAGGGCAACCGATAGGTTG
Result block: low range
